settings: 293.15 K; 101.33 kPa; Liquid; Vibrating tube method
± gives the expanded uncertainty stated by the source.
metric-name: mass density

Field: example entries. Status: answers known.
Form field mass density, entry CCCC[n+]1ccn(C)c1.O=S(=O)([N-]S(=O)(=O)C(F)(F)F)C(F)(F)F : 1442.3 ± 5.8 kg/m3

Per the record, CCCCCCCCCCn1cc[n+](C)c1.O=S(=O)([N-]S(=O)(=O)C(F)(F)F)C(F)(F)F has mass density of 1284.9 ± 5.2 kg/m3

Noted for CCCn1cc[n+](C)c1.O=S(=O)([N-]S(=O)(=O)C(F)(F)F)C(F)(F)F : its mass density reads 1480.5 ± 6 kg/m3

// mass density value for CCn1cc[n+](C)c1.O=S(=O)([N-]S(=O)(=O)C(F)(F)F)C(F)(F)F : 1525 ± 6.1 kg/m3

Sure, the documented mass density for CCCCCCCn1cc[n+](C)c1.O=S(=O)([N-]S(=O)(=O)C(F)(F)F)C(F)(F)F is 1349.5 ± 5.4 kg/m3

Respectfully, I request mass density for each entry included below.
1. CCCCCCCCC[n+]1ccn(C)c1.O=S(=O)([N-]S(=O)(=O)C(F)(F)F)C(F)(F)F
2. CCCCCC[n+]1ccn(C)c1.O=S(=O)([N-]S(=O)(=O)C(F)(F)F)C(F)(F)F
3. CCCCCn1cc[n+](C)c1.O=S(=O)([N-]S(=O)(=O)C(F)(F)F)C(F)(F)F
4. CCCCCCCCCCCCn1cc[n+](C)c1.O=S(=O)([N-]S(=O)(=O)C(F)(F)F)C(F)(F)F

*A*
["1303.1 ± 5.4 kg/m3", "1378.1 ± 5.5 kg/m3", "1408.1 ± 5.7 kg/m3", "1249.6 ± 5 kg/m3"]

Kindly note the recorded mass density for CCCCCCCCn1cc[n+](C)c1.O=S(=O)([N-]S(=O)(=O)C(F)(F)F)C(F)(F)F , which is 1326.5 ± 5.3 kg/m3

---

For each entry below, report its mass density value.
conditions: 383.15 K; 101.33 kPa; Liquid; Vibrating tube method
Numbers after ± are expanded uncertainties.
Please don't drop the unit; write it after the number.

Observe how each entry below is paired with its result.
response.value for CCCn1cc[n+](C)c1.O=S(=O)([N-]S(=O)(=O)C(F)(F)F)C(F)(F)F (field: mass density) = 1394.5 ± 5.6 kg/m3

Entry CCCCCn1cc[n+](C)c1.O=S(=O)([N-]S(=O)(=O)C(F)(F)F)C(F)(F)F , mass density reported as 1325.9 ± 5.3 kg/m3

The molecule listed as CCCCCCCCCCCCCCn1cc[n+](C)c1.O=S(=O)([N-]S(=O)(=O)C(F)(F)F)C(F)(F)F has a reported mass density of 1144.4 ± 4.6 kg/m3

For reference, reported mass density for CCCCCCCCCCCCn1cc[n+](C)c1.O=S(=O)([N-]S(=O)(=O)C(F)(F)F)C(F)(F)F stands at 1174.7 ± 4.7 kg/m3

CCn1cc[n+](C)c1.O=S(=O)([N-]S(=O)(=O)C(F)(F)F)C(F)(F)F yielded mass density of 1437.2 ± 5.8 kg/m3

I need mass density for every entry listed below, if you could help.
1. CCCCCCCCn1cc[n+](C)c1.O=S(=O)([N-]S(=O)(=O)C(F)(F)F)C(F)(F)F
2. CCCCCCCCC[n+]1ccn(C)c1.O=S(=O)([N-]S(=O)(=O)C(F)(F)F)C(F)(F)F
3. CCCCCC[n+]1ccn(C)c1.O=S(=O)([N-]S(=O)(=O)C(F)(F)F)C(F)(F)F
4. CCCCCCCCCCn1cc[n+](C)c1.O=S(=O)([N-]S(=O)(=O)C(F)(F)F)C(F)(F)F
5. CCCCCCCn1cc[n+](C)c1.O=S(=O)([N-]S(=O)(=O)C(F)(F)F)C(F)(F)F
6. CCCC[n+]1ccn(C)c1.O=S(=O)([N-]S(=O)(=O)C(F)(F)F)C(F)(F)F

*A*
1. 1248.1 ± 5 kg/m3
2. 1225.8 ± 5.1 kg/m3
3. 1297.4 ± 5.2 kg/m3
4. 1208.4 ± 4.8 kg/m3
5. 1270.1 ± 5.1 kg/m3
6. 1358.7 ± 5.5 kg/m3
